tgt: PolQ ATPase enzyme (1-894) (Homo sapiens (Human))
assay.explanation: Polθ ATPase enzymatic assay (0.5 nM enzyme concentration), ADP-Glo
Assay type: biochemical
experimental.context: average IC50; 0.5 nM PolQ ATPase enzyme (1-894)
Procedure: PolQ ATPase enzyme (1-894) at 0.5 nM is incubated with a 10-point concentration response of inhibitors for 15 min at rt in the following buffer: 50 mM Tris Cl pH 7.5, 10% glycerol, 5 mM DTT, 10 mM MgCl2, 0.1 mg/ml BSA. […] Enzymatic reaction proceeds at rt for 180 min ATP consumption is measured using the ADP-Glo assay from Promega. Luminescence is read on the Envision and IC50 are determined using the variable slope 4-parameters equation. […]
metric.name: IC50 (nM)

>  <compound>
COc1cnc(C(F)F)cc1-c1cnccc1C(=O)Nc1nnc([C@@H]2C[C@H]2c2ccc(C#N)cc2)s1 [Compound 303]

>  <metric.name>
IC50

>  <measured.result>
1.1

$$$$
>  <compound>
COc1ccc(C(F)(F)F)nc1-c1cn(CC(=O)N(C)C)c(=O)cc1C(=O)Nc1nnc(C#CC2CC2)s1

>  <metric.name>
IC50

>  <measured.result>
2.1

$$$$

[A] CNC(=O)Cn1cc(-c2nc(C(F)(F)F)ccc2OC)c(C(=O)Nc2nnc(C#CC3CC3)s2)cc1=O
[B] C#C[C@@H]1CC1c1nnc(NC(=O)c2ccncc2-c2cc(C(F)F)ncc2OC)s1 (stereo partly shown)
[C] CN(C)C(=O)Cn1cc(-c2cc(C(F)(F)F)ccc2Cl)c(C(=O)Nc2nnc(C#CC3CC3)s2)cc1=O
*Q* Rank items: key IC50, increasing. When ranking, write the labels in the order the request describes.
*A* C, A, B
(C: 0.29 nM, A: 2.4 nM, B: 4.5 nM)

---

tgt: Polθ ATPase enzyme (1-894) (Homo sapiens (Human))
Sequence (O75417 1-894): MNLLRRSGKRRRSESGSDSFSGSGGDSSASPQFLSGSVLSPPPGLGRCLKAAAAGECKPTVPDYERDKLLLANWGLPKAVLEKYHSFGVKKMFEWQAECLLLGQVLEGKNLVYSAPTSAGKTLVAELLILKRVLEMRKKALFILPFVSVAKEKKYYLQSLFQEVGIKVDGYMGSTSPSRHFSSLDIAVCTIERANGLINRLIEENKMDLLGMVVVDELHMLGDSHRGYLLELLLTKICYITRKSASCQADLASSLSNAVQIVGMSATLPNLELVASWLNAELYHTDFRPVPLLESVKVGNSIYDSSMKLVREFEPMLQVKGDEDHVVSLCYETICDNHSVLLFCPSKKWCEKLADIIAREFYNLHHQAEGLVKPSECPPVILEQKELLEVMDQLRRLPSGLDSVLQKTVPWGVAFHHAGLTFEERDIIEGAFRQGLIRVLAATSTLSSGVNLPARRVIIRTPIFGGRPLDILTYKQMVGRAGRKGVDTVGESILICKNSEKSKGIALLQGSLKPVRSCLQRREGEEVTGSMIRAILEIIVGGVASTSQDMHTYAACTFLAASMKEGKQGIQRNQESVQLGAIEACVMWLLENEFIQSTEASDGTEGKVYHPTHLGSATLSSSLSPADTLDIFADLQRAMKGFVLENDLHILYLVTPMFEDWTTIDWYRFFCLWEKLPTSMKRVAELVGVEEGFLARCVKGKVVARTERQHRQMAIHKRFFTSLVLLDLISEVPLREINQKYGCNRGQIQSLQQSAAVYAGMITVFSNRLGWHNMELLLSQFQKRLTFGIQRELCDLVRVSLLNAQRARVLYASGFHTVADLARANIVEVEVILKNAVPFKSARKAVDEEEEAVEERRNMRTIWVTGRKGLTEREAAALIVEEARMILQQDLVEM
assay.explanation: Polθ ATPase enzymatic assay (3 nM enzyme concentration), ADP-Glo
Type: biochemical
experimental.context: read-out: IC50 (nM) [PolQ] 3 nM; average IC50; 3 nM PolQ ATPase enzyme (1-894)
metric.name: IC50 (nM)

>  <structure.smiles.string>
COc1ccc(F)cc1-c1cn(C)c(=O)cc1C(=O)Nc1nnc(C#Cc2ccn(C)n2)s1

>  <measured.result>
27

$$$$
>  <structure.smiles.string>
COc1c(F)cccc1-c1cnccc1C(=O)Nc1nnc(C#CC2CC2)s1

>  <measured.result>
6.9

$$$$

[A] COc1cnc(Cl)cc1-c1cnccc1C(=O)Nc1nnc(C#CC2CC2)s1
[B] COc1ccc(F)cc1-c1cnccc1C(=O)Nc1nnc(C#Cc2ccc3nccn3n2)s1
[C] COc1ccc(F)cc1-c1cn(C)c(=O)cc1C(=O)Nc1nnc(C#Cc2cc(C)[nH]n2)s1
[D] COc1ccc(F)cc1-c1cnccc1C(=O)Nc1nnc(C#Cc2cnc(C#N)c(OC)c2)s1
*Q* Put the items in sequence by IC50, from largest down. When ranking, write the labels in the order the request describes.
*A* B, D, C, A
(B: 117 nM, D: 54 nM, C: 5.4 nM, A: 1.5 nM)

---

tgt: PolQ ATPase enzyme (1-894) (Homo sapiens (Human), UniProt O75417)
Sequence (O75417 1-894): as above
assay.explanation: Polθ ATPase enzymatic assay (0.5 nM enzyme concentration), ADP-Glo
Assay type: biochemical
experimental.context: average IC50; 0.5 nM PolQ ATPase enzyme (1-894)
metric.name: IC50 (nM)

>  <molecule>
COc1cnc(C(F)F)cc1-c1cc(C#CC2(O)CCS(=O)(=O)CC2)ccc1C(=O)Nc1ncc(C#CC2CC2)s1 [Compound 238]

>  <IC50 (nM)>
3.6

$$$$

[a] COc1cnc(C(F)F)cc1-c1cc(-c2nnc(C)o2)ccc1C(=O)Nc1nc(C)c(C#CC2CC2)s1 [Compound 164]
[b] COc1cnc(C(F)F)cc1-c1ccncc1C(=O)Nc1nnc(C#CC2CC2)s1 [Compound 316]
*Q* Of a and b , whose reported IC50 is numerically smaller? Field: selected label. Fill in the label of the entry you choose.
*A* b
(b: 1.6 nM, a: 289 nM)

---

tgt: PolQ ATPase enzyme (1-894) (Homo sapiens (Human), UniProt O75417)
assay.explanation: Polθ ATPase enzymatic assay (0.5 nM enzyme concentration), ADP-Glo
Assay type: biochemical
experimental.context: average IC50; 0.5 nM PolQ ATPase enzyme (1-894)
metric.name: IC50 (nM)

Some solved cases for reference:
>  <compound>
COc1ccc(C(F)(F)F)cc1-c1cc(C#CC2CCCOC2)ncc1C(=O)Nc1nnc(C#CC2CC2)s1 (stereo not drawn)

>  <endpoint.unit>
nM

>  <IC50>
0.77

$$$$
>  <compound>
COc1cnc(Cl)cc1-c1cnccc1C(=O)Nc1nnc(C2C[C@H]2c2ccc(C#N)cc2OC)s1 (stereo partly drawn)

>  <endpoint.unit>
nM

>  <IC50>
13

$$$$
>  <compound>
COc1cnc(C(F)F)cc1-c1cc(C#CCN2CCS(=O)(=O)CC2)ccc1C(=O)Nc1nnc(C#CC2CC2)s1

>  <endpoint.unit>
nM

>  <IC50>
0.35

$$$$
>  <compound>
COc1cnc(C(F)F)cc1-c1cc(N2CCN(C)C3(CC3)C2=O)ncc1C(=O)Nc1ncc(C#CC2CC2)s1

>  <endpoint.unit>
nM

>  <IC50>
0.27

$$$$
>  <compound>
COc1cnc(Cl)cc1-c1cc(C(N)=O)ncc1C(=O)Nc1nnc(C#CC2CC2)s1

>  <endpoint.unit>
nM

>  <IC50>
0.42

$$$$
>  <compound>
COc1cnc(Cl)nc1-c1cnccc1C(=O)Nc1nnc(C#CC2CC2)s1

>  <endpoint.unit>
nM

>  <IC50>
1.6

$$$$
>  <compound>
C#C[C@@H]1C[C@H]1c1nnc(NC(=O)c2ccc(N3CCOCC3=O)cc2-c2cc(C(F)F)ncc2OC)s1

>  <endpoint.unit>
nM

>  <IC50>
0.39

$$$$
>  <compound>
COc1cnc(C(F)F)cc1-c1cn2ncnc2cc1C(=O)Nc1nnc(C#CC2CC2)s1

>  <endpoint.unit>
nM

>  <IC50>
6.6

$$$$
>  <compound>
COc1cnc(C(F)F)cc1-c1cc(-c2cnccn2)ncc1C(=O)Nc1nnc(C#CC2CC2)s1

>  <endpoint.unit>
nM

>  <IC50>
1.5

$$$$
>  <compound>
COc1ccc(C(F)(F)F)cc1-c1cn2ncnc2cc1C(=O)Nc1nnc(C#CC2CC2)s1

>  <endpoint.unit>
nM

>  <IC50>
3.7

$$$$

[1] COc1cnc(C(F)F)cc1-c1cc(N2CC3(COC3)CC2=O)ncc1C(=O)Nc1nnc(C#CC2CC2)s1
[2] CNC(=O)Cn1cc(-c2cc(C(F)(F)F)ccc2OC)c(C(=O)Nc2nnc(C3CC3c3ccc(C#N)cc3)s2)cc1=O (stereo not drawn)
[3] COc1cnc(C(F)F)cc1-c1cc(-c2ccn(C)n2)ncc1C(=O)Nc1nnc(C#CC2CC2)s1
[4] COc1cnc(C(F)F)cc1-c1cc(C(=O)N(C)C)ccc1C(=O)Nc1nnc(C#CC2CC2)s1
[5] COc1c(F)cccc1-c1cnccc1C(=O)Nc1nnc(C#CC2CC2)s1
*Q* Rank items: key IC50, increasing. When ranking, write the labels in the order the request describes.
*A* 2, 3, 1, 4, 5

---

tgt: PolQ ATPase enzyme (1-894) (Homo sapiens (Human), UniProt O75417)
assay.explanation: Polθ ATPase enzymatic assay (0.5 nM enzyme concentration), ADP-Glo
Format: biochemical
experimental.context: average IC50; 0.5 nM PolQ ATPase enzyme (1-894)
metric.name: IC50 (nM)

>  <compound>
COc1ccc(C#N)cc1-c1cnccc1C(=O)Nc1nnc(C#CC2CCC2)s1 [Compound 5]

>  <IC50 / nM>
1.5

$$$$

[1] O=C(Nc1nnc(C#CC2CC23CC3)s1)c1cc2ncnn2cc1-c1cc(Cl)ncc1OC(F)F (stereo not drawn) [Compound 47]
[2] COc1ccc(C(F)F)cc1-c1cc(C#N)ncc1C(=O)Nc1nnc(C#CC2CC2)s1 [Compound 321]
*Q* Of 1 and 2 , whose reported IC50 is numerically smaller? Field: selected label. Fill in the label of the entry you choose.
*A* 2

[I] COc1cnc(C(F)F)cc1-c1cc(C#CCN2CCOCC2)ncc1C(=O)Nc1nnc(C#CC2CC2)s1 [Compound 218]
[II] CN(C)C(=O)Cn1cc(-c2cc(F)ccc2Cl)c(C(=O)Nc2nnc(C#CC3CC3)s2)cc1=O [Compound 66]
*Q* Given I and II , report the one with the higher recorded IC50. Field: selected label. Fill in the label of the entry you choose.
*A* II

---

tgt: PolQ ATPase enzyme (1-894) (Homo sapiens (Human), UniProt O75417)
assay.explanation: Polθ ATPase enzymatic assay (0.5 nM enzyme concentration), ADP-Glo
Type: biochemical
experimental.context: average IC50; 0.5 nM PolQ ATPase enzyme (1-894)
metric.name: IC50 (nM)

>  <structure.smiles.string>
COc1cnc(C(F)F)cc1-c1cc(N2CCO[C@H](C)C2=O)ncc1C(=O)Nc1nnc(C#CC2CC2)s1

>  <IC50 [nM]>
0.41

$$$$

[1] COc1cnc(C(F)F)cc1-c1cc(-c2ccn(C)n2)c(F)cc1C(=O)Nc1nnc(C#CC2CC2)s1
[2] COc1cnc(C(F)F)cc1-c1cc(C2CC2)ncc1C(=O)Nc1nnc(C#CC2CC2)s1
*Q* Given 1 and 2 , report the one with the higher recorded IC50. Field: selected label. Fill in the label of the entry you choose.
*A* 2
